# targetDesc: PfCSP full length (Plasmodium falciparum (isolate NF54), UniProt P19597)
# Sequence (P19597 20-375): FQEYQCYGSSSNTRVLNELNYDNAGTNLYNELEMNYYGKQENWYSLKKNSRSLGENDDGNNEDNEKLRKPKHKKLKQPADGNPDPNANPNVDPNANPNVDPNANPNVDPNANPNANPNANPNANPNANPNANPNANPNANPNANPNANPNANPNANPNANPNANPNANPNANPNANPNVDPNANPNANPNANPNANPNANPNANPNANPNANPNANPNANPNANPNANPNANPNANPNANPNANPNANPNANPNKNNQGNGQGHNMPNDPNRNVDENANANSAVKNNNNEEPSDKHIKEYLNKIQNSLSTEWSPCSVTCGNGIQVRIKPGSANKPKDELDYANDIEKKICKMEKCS
# experimentNotes: ELISA AUC
Some binders, each annotated with its measured binding score.
Give the figure by itself; no unit, no explanation.

Here are 2 binders together with their reported answers.
binder="CL-447376 (antibody, V domains shown, peptides N-terminally acetylated and C-terminally amidated) VH: QVQLVESGGGVVQPGRSLRLSCAASGFNFNNYGMHWVRQAPVMGLEWVAIIWYDGSNKFYADSVKGRFTISRDNSQNTLFLQMNSLRAEDTGIYYCARSGGEMGNFDYWGQGTLVTVSS VL: DIVMTQSPLSLPVTLGQPASISCRSSQSLVYSNGDTYLDWFQLRPGQSPRRLIYKVSHRDSGVPDRFSGSGSGTEFTLRISRVEAEDVGIYYCMQGTHYWTFGQGTEVEIK" quantitativereadout=2.5
binder="CL-511296 (antibody, V domains shown, peptides N-terminally acetylated and C-terminally amidated) VH: QVQLVASGGGVVQPGRSQRLSCAASGFTFSNYGMHWVRQSPGRGLEWVAIIWYDGSNKFYADSVKGRFTISRDNSRNTLFLQMNSLRAEDTAIYYCAKSEERTSDNYFKYGMDVWGQGTTVIVST VL: DIQMTQSPSTLSASVGDRVTITCRASQSISSWLAWYQQKPGKAPKLLIYKASNLESGVPSRFSGSGSGTEFTLSISNLQPDDFATYFCQQYTSYWTFGQGTKVEIK" quantitativereadout=2.34

Next binder, binding score to be filled in.
Exercise: I'd like to know its binding score. The binder in question is CL-441816 (antibody, V domains shown, peptides N-terminally acetylated and C-terminally amidated) VH: QEQLVESGGGVVQPGRSLRLSCATSGFTFSTYGLHWVRQSPGKGLEWVTVIWYDGSNKFYADSVKGRFTISRDNSKNTLYLQMNSLRAEDTAVYYCARALYSSRWYGAFDIWGQGTMVTVSS VL: QSVLTQPPSVSGAPGQRVTISCTGSSSNIGAGYDVHWYQLLPGTAPKLLIYGNSNRPSGVPDRFSGSKSGTSASLAITGLQAEDEADYYCQSYIRSLSGSVFGGGTKLTVL
Solution: 2.4
